# test_name: Heparin oral/intracolonic delivery, clotting time by activated partial thromboplastin time (APTT)
# Format: in vivo, Sprague-Dawley rats
# conditions_used: IC (intracolonic), rats; delivery agent compound 50 mg/kg, heparin 25 mg/kg, volume dose 1 ml; baseline about 20 seconds
readout: Mean Peak APTT ± SD (s)
Respond with the bare value in s.

O=C(O)CCCCCCCCCOc1ccccc1O [Compound 8] : 251.94
CNC(=O)c1ccccc1OCCCCCCCC(=O)O [Compound 31] : 47
O=C(O)c1ccc(COc2ccccc2O)cc1 [Compound 2] : 48.788
O=C(O)CCCCCCCOc1ccccc1C(=O)O [Compound 32] : 26.5

The measured Mean Peak APTT ± SD associated with O=C(O)CCCCCCCOc1ccc(O)cc1 [Compound 47, (4-hydroxyphenyl)-8-oxyoctanoic acid] reads 370.3

Reported Mean Peak APTT ± SD of CNC(=O)c1ccccc1OCCCCCCCCCC(=O)O [Compound 51] : 92.5

Looking up CC(=O)c1ccccc1OCCCCCC(=O)O [Compound 11] , I found its Mean Peak APTT ± SD recorded as 39.53

Field Mean Peak APTT ± SD (entry CC(=O)c1ccccc1OCCCC(=O)O [Compound 9] ) reads 21.45

Mean Peak APTT ± SD reading for Nc1cc(Cl)ccc1OCCCCCCCC(=O)O [Compound 22] : 287.9

Noted for NC(=O)c1ccccc1OCCCCCCCC(=O)O [Compound 30, 8-(2-carboxamidophenoxy)caprylic acid] : its Mean Peak APTT ± SD reads 50.9

response.value for CC(=O)c1ccccc1OCCCCCCCCCC(=O)O [Compound 54] (field: Mean Peak APTT ± SD) = 31.56

Recorded result, COc1ccccc1OCCCCCCCC(=O)O [Compound 35] , Mean Peak APTT ± SD: 65.8
